# methodNotes: Pharmacokinetics of cabergoline in plasma after IMM administration (Example 2.2)
# Format: in vivo, cow
# conditionDescription: female, Prim'holstein and Brown Swiss, bovine, 5.4 mg/udder, n=5, plasma, read-out: Tmax, mean (sd)
measuredMetric: Tmax (h)
Numbers only, in h.

IN: So what does the record say about Tmax for C=CCN1C[C@H](C(=O)N(CCCN(C)C)C(=O)NCC)C[C@@H]2c3cccc4[nH]cc(c34)C[C@H]21 [cabergoline] ?
OUT: 8.4

* * *

# methodNotes: Pharmacokinetics of cabergoline in plasma after IMM administration (Example 2.2)
# Assay type: in vivo, cow
# conditionDescription: female, Prim'holstein and Brown Swiss, bovine, 5.4 mg/udder, n=5, plasma, read-out: AUCo-inf, mean (sd)
measuredMetric: AUC (ng·h/mL)
Give bare numbers, in ng·h/mL.

IN: So what does the record say about AUC for `C=CCN1C[C@H](C(=O)N(CCCN(C)C)C(=O)NCC)C[C@@H]2c3cccc4[nH]cc(c34)C[C@H]21` ?
OUT: 4.75

* * *

# methodNotes: Pharmacokinetics of cabergoline in plasma after IM administration, 5.6 mg/cow (comparative study)
# Format: in vivo
# conditionDescription: bovine, n=6, plasma, read-out: MRT, mean (sd)
measuredMetric: MRT (h)
One number for each entry, in h.

IN: So what does the record say about MRT for `C=CCN1C[C@H](C(=O)N(CCCN(C)C)C(=O)NCC)C[C@@H]2c3cccc4[nH]cc(c34)C[C@H]21` ?
OUT: 22.7

* * *

# methodNotes: Pharmacokinetics of cabergoline in plasma after IM administration, 5.6 mg/cow (comparative study)
# Assay type: in vivo
# conditionDescription: bovine, n=6, plasma, read-out: AUCo-inf, mean (sd)
measuredMetric: AUC (ng·h/mL)
Give bare numbers, in ng·h/mL.

IN: So what does the record say about AUC for `C=CCN1C[C@H](C(=O)N(CCCN(C)C)C(=O)NCC)C[C@@H]2c3cccc4[nH]cc(c34)C[C@H]21` ?
OUT: 2.49

* * *

# methodNotes: Pharmacokinetics of cabergoline in plasma after IM administration, 5.6 mg/cow (comparative study)
# Assay type: in vivo
# conditionDescription: bovine, n=6, plasma, read-out: Tmax, mean (sd)
measuredMetric: Tmax (h)
Give bare numbers, in h.

IN: So what does the record say about Tmax for C=CCN1C[C@H](C(=O)N(CCCN(C)C)C(=O)NCC)C[C@@H]2c3cccc4[nH]cc(c34)C[C@H]21 [cabergoline] ?
OUT: 3

* * *

# methodNotes: Pharmacokinetics of cabergoline in plasma after IMM administration (Example 2.2)
# Type: in vivo, cow
# conditionDescription: female, Prim'holstein and Brown Swiss, bovine, 5.4 mg/udder, n=5, plasma, read-out: MRT, mean (sd)
measuredMetric: MRT (h)
Answers are plain numbers, in h.

IN: So what does the record say about MRT for C=CCN1C[C@H](C(=O)N(CCCN(C)C)C(=O)NCC)C[C@@H]2c3cccc4[nH]cc(c34)C[C@H]21 [cabergoline] ?
OUT: 36.3

* * *

# methodNotes: Pharmacokinetics of cabergoline in plasma after IMM administration (Example 2.2)
# Assay type: in vivo, cow
# conditionDescription: female, Prim'holstein and Brown Swiss, bovine, 5.4 mg/udder, n=5, plasma, read-out: Cmax, mean (sd)
measuredMetric: Cmax
Units required after the number.

IN: So what does the record say about Cmax for C=CCN1C[C@H](C(=O)N(CCCN(C)C)C(=O)NCC)C[C@@H]2c3cccc4[nH]cc(c34)C[C@H]21 [cabergoline] ?
OUT: 0.114 ng/mL
